Assay: Vero E6 cell cytotoxicity, dose response, cytotoxicity control for non-replicating M. tuberculosis project, secondary assay (AID 492998)
Assay type: functional, VeroE6
Settings: Mycobacterium tuberculosis, Vero C1008
Calls of active or inactive are those of the source.
QUANTITY: CC50

{"CHEMICAL STRUCTURE": "CN(Cc1ccccc1)C(=O)c1ccc([N+](=O)[O-])o1", "RESULT": "19.4 µM (active)"}
{"CHEMICAL STRUCTURE": "COc1cc(CNCCO)cc(Cl)c1OCc1ccc(Cl)cc1Cl", "RESULT": "14.1 µM (active)"}
{"CHEMICAL STRUCTURE": "Cc1ccc2nc(NC(=O)c3ccccn3)sc2c1", "RESULT": "7.23 µM (active)"}
{"CHEMICAL STRUCTURE": "O=C(Nc1ccccc1C(=O)Nc1nnc(C(F)(F)F)s1)c1ccccc1", "RESULT": "> 20 µM (active)"}

----------
System: H4
Assay: Luminescence Cell-Based Dose Response HTS to Identify Activators of 5'UTR Stem-Loop Driven Prion Protein mRNA Translation in H4 Neuroglioblastoma Cells. [Related pubchem assays: 1829 (Project Summary), 1814 (Primary HTS)]
Assay type: functional
Conditions: Homo sapiens
Calls of active or inactive are those of the source.

{"CHEMICAL STRUCTURE": "O=C(CSc1nnc2ccccn12)N1CCc2ccccc2C1", "EC50": "78 µM (active)"}
{"CHEMICAL STRUCTURE": "c1ccc(NCc2nc(-c3ccccc3)no2)cc1", "EC50": "15.8 µM (active)"}
{"CHEMICAL STRUCTURE": "CCOC(=O)c1cnn(-c2ncnc3sc4c(c23)CCC4)c1N", "EC50": "11.9 µM (active)"}
{"CHEMICAL STRUCTURE": "CC(C)c1nnc(NC(=O)COc2ccccc2[N+](=O)[O-])s1", "EC50": "13.6 µM (active)"}
{"CHEMICAL STRUCTURE": "C/C(=C\\c1ccco1)CN1CCC(N2CCC(C(=O)N3CCOCC3)CC2)CC1", "EC50": "> 120 µM (not active)"}

----------
Biological target: UniProt:P49327
Sequence (P49327 whole entry, the tested form may be a part): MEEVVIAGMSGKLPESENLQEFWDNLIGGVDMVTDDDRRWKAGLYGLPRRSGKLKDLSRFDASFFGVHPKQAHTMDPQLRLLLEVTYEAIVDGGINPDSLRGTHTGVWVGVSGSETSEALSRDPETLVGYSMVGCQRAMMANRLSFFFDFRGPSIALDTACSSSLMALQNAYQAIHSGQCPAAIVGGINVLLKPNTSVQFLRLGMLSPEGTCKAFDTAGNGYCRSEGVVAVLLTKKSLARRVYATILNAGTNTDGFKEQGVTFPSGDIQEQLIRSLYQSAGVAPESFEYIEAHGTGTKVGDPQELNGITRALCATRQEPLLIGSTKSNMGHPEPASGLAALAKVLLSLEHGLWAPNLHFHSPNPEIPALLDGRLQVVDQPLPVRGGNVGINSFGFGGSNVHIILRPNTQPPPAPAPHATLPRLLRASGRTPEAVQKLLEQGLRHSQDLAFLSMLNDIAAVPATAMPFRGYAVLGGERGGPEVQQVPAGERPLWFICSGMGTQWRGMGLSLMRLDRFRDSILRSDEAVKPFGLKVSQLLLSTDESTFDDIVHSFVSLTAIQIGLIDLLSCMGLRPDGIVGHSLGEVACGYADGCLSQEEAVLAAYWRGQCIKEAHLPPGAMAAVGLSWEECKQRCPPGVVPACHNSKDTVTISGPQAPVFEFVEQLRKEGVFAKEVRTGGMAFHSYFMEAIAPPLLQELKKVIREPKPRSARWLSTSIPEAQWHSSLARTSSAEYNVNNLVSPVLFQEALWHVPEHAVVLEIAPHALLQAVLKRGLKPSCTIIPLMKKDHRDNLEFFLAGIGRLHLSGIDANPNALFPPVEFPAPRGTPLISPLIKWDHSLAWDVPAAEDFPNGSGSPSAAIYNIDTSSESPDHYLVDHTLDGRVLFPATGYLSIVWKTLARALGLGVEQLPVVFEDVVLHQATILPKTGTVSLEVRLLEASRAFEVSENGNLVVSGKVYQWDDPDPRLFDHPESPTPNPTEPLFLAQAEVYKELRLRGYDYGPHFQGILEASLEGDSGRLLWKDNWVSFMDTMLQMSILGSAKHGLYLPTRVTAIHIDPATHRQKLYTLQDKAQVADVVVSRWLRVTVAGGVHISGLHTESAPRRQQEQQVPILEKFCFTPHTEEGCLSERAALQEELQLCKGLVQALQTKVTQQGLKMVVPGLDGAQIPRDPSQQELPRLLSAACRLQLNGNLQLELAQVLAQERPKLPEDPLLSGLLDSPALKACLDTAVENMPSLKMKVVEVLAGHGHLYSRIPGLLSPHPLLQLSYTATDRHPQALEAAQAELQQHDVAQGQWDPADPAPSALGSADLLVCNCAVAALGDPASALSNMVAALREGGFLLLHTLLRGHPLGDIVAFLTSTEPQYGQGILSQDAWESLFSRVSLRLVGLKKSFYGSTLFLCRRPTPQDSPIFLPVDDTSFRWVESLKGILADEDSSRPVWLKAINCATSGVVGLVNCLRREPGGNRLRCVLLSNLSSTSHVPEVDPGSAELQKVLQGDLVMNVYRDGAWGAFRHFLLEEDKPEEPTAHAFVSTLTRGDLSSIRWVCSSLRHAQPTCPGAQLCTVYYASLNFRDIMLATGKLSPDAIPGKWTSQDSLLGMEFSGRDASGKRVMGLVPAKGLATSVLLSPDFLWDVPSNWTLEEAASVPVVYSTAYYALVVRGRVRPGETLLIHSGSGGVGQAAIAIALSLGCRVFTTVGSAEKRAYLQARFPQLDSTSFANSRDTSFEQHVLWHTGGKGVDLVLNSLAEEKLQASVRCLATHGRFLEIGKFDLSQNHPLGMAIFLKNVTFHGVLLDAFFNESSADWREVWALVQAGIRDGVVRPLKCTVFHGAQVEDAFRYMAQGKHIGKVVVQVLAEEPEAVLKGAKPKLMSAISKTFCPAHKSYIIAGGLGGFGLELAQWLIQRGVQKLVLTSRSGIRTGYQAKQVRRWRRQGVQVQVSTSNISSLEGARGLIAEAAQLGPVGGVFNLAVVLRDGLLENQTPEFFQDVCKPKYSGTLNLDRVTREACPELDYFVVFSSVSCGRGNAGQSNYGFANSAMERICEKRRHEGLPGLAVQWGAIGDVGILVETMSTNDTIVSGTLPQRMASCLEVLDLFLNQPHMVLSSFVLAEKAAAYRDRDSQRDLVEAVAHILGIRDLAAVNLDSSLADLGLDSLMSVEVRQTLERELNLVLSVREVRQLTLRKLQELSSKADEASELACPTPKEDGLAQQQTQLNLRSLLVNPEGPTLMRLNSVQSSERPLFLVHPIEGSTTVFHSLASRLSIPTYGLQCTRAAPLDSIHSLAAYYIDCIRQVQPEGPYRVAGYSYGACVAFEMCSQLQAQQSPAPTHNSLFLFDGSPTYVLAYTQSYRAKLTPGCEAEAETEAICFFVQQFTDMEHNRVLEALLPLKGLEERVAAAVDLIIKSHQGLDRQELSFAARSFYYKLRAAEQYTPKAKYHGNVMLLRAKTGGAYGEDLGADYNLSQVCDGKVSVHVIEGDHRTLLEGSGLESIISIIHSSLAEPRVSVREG
Assay: FAS thioesterase domain inhibitors, dose response, biochemical, kinetic fluorescence intensity (AID 624326);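 also: rate of fluorescence rise from hydrolysis of a fluorogenic O-methyl fluorescein ester substrate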
Type: functional
The source made the active and inactive calls.
Outcomes: active, inactive

{"CHEMICAL STRUCTURE": "O=C(Nc1ccccc1C(=O)Nc1nnc(C(F)(F)F)s1)c1ccccc1", "MEASURED TARGET": "UniProt:P49327", "CAT": "inactive"}
{"CHEMICAL STRUCTURE": "O=[N+]([O-])c1cc(-c2csc(NCCc3nc4cc(Cl)c(Cl)cc4n3CCCO)n2)ccc1Cl", "MEASURED TARGET": "UniProt:P49327", "CAT": "active"}
{"CHEMICAL STRUCTURE": "COc1ccc(-c2csc3nc(-c4ccccc4F)oc(=O)c23)cc1", "MEASURED TARGET": "UniProt:P49327", "CAT": "active"}

----------
Target: Sentrin-specific protease 8 (Homo sapiens, UniProt Q96LD8);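 also: luminescence read-out of SENP8 inhibition, dose-response confirmation following an ultra-high-throughput screen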
Sequence (Q96LD8 whole entry): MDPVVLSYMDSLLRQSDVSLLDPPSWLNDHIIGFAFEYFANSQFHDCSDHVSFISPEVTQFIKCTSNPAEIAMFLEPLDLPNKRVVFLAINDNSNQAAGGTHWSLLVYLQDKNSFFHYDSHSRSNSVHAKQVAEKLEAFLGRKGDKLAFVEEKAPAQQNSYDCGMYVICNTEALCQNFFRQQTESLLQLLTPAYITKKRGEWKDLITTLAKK
Type: functional
Activity calls are given as the source filed them.
Recorded IC50 by entry

{"CHEMICAL STRUCTURE": "COc1cccc(C(=O)Oc2ccc(/C=N/Nc3ccc(C(=O)O)cc3)cc2OC)c1", "IC50": "17.1 µM (active)"}
{"CHEMICAL STRUCTURE": "COc1ccc(/C=N/Nc2cc(N3CCCC3)nc(N3CCCC3)n2)cc1", "IC50": "7.52 µM (active)"}
{"CHEMICAL STRUCTURE": "Cc1cccc(-n2ncc3c(N4CCC(C)CC4)ncnc32)c1", "IC50": "27.9 µM (active)"}
{"CHEMICAL STRUCTURE": "Oc1ccc(/C=N/Nc2cc(N3CCCC3)nc(N3CCCC3)n2)cc1", "IC50": "22.1 µM (active)"}
{"CHEMICAL STRUCTURE": "N#Cc1ccsc1NC(=O)CSc1nnnn1-c1ccc(O)cc1", "IC50": "36.8 µM (active)"}
{"CHEMICAL STRUCTURE": "C/C(=N\\Nc1ccc([N+](=O)[O-])cc1)c1ccco1", "IC50": "73.8 µM (active)"}
{"CHEMICAL STRUCTURE": "C/C(=N\\OC(=O)c1ccc(Br)cc1)c1ccccn1", "IC50": "2.43 µM (active)"}

----------
Molecular target: Replicative DNA helicase DnaB (Mycobacterium tuberculosis, UniProt P9WMR3)
Sequence (P9WMR3 whole entry): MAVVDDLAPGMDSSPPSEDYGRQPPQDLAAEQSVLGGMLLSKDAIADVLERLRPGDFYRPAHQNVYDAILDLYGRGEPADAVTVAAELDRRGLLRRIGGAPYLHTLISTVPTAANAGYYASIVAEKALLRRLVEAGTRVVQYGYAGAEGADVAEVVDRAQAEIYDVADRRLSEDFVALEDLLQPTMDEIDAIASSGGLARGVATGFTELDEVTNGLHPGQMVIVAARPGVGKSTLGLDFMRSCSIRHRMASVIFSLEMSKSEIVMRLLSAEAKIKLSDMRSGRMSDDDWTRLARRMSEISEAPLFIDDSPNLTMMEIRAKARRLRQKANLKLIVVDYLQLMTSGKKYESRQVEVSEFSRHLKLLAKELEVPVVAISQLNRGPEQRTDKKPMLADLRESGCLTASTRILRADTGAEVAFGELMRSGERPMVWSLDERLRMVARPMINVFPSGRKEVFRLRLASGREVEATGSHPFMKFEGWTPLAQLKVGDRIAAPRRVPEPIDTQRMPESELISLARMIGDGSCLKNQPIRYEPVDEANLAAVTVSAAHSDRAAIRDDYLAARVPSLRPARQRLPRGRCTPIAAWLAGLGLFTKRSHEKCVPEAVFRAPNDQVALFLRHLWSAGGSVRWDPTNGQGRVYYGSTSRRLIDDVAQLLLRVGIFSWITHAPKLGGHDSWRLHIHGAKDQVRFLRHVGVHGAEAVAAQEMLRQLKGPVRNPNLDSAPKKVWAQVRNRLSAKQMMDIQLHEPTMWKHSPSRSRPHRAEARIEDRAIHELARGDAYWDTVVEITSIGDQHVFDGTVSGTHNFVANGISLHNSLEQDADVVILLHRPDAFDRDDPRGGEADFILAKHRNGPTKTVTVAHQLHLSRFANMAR
Test: DnaB intein splicing inhibitors, dose response, biochemical, cell-free fluorescence (AID 449749)
Format: functional
Calls of active or inactive are those of the source.
Outcomes: active, inactive

{"COMPOUND": "CC(C)(C)c1ccc(C(=O)Cn2cnnc2C#N)cc1", "MEASURED TARGET": "Replicative DNA helicase DnaB (Mycobacterium tuberculosis, UniProt P9WMR3)", "CAT": "active"}
{"COMPOUND": "N#CC1=C(N)C(C#N)(C#N)[C@H](c2c(F)cccc2F)[C@H]2CC3(CC=C12)OCCO3", "MEASURED TARGET": "Replicative DNA helicase DnaB (Mycobacterium tuberculosis, UniProt P9WMR3)", "CAT": "inactive"}
{"COMPOUND": "Cc1nc2ccccc2c2c1C(=O)N(Cc1cccnc1)C2=O", "MEASURED TARGET": "Replicative DNA helicase DnaB (Mycobacterium tuberculosis, UniProt P9WMR3)", "CAT": "active"}
{"COMPOUND": "Cc1cccc(C)c1-n1cccc1/C=C1\\SC(=S)N(c2cccc(C(=O)O)c2)C1=O", "MEASURED TARGET": "Replicative DNA helicase DnaB (Mycobacterium tuberculosis, UniProt P9WMR3)", "CAT": "active"}
{"COMPOUND": "COc1ccc2c(c1)-c1nc(/N=C/c3c(O)ccc4ccccc34)sc1CC2", "MEASURED TARGET": "Replicative DNA helicase DnaB (Mycobacterium tuberculosis, UniProt P9WMR3)", "CAT": "active"}
{"COMPOUND": "COCc1n[nH]c2c1C(c1cccc(OC)c1)C(C#N)=C(N)O2 (stereo not drawn)", "MEASURED TARGET": "Replicative DNA helicase DnaB (Mycobacterium tuberculosis, UniProt P9WMR3)", "CAT": "active"}
{"COMPOUND": "COc1ccc(CN(CCC(c2ccccc2)c2ccc(OC(C)C)cc2)C(=O)CCl)cc1OC (stereo not drawn)", "MEASURED TARGET": "Replicative DNA helicase DnaB (Mycobacterium tuberculosis, UniProt P9WMR3)", "CAT": "active"}
{"COMPOUND": "Nc1ccc(O)cc1", "MEASURED TARGET": "Replicative DNA helicase DnaB (Mycobacterium tuberculosis, UniProt P9WMR3)", "CAT": "inactive"}
{"COMPOUND": "COc1ccc(-c2cc(C(F)(F)F)nc(S(=O)(=O)CCCC(=O)Nc3cccc(O)c3)n2)cc1OC", "MEASURED TARGET": "Replicative DNA helicase DnaB (Mycobacterium tuberculosis, UniProt P9WMR3)", "CAT": "active"}
{"COMPOUND": "COC(=O)C1=NN(C(C)=O)C2(CC(=O)N(c3cc(C)cc(C)c3)C2=O)C1 (stereo not drawn)", "MEASURED TARGET": "Replicative DNA helicase DnaB (Mycobacterium tuberculosis, UniProt P9WMR3)", "CAT": "inactive"}
{"COMPOUND": "Cc1sc(NC(=O)CSC2=NCCS2)nc1-c1ccccc1", "MEASURED TARGET": "Replicative DNA helicase DnaB (Mycobacterium tuberculosis, UniProt P9WMR3)", "CAT": "active"}
{"COMPOUND": "O=C(Nc1nc(-c2ccccc2)cs1)c1ccccc1NS(=O)(=O)c1ccc(F)cc1", "MEASURED TARGET": "Replicative DNA helicase DnaB (Mycobacterium tuberculosis, UniProt P9WMR3)", "CAT": "active"}
